Attribution: patent US20040127492A1

System under test: MAPKAPK2 (MK-2) (Homo sapiens, UniProt P49137)
Sequence (P49137 whole entry, species assumed): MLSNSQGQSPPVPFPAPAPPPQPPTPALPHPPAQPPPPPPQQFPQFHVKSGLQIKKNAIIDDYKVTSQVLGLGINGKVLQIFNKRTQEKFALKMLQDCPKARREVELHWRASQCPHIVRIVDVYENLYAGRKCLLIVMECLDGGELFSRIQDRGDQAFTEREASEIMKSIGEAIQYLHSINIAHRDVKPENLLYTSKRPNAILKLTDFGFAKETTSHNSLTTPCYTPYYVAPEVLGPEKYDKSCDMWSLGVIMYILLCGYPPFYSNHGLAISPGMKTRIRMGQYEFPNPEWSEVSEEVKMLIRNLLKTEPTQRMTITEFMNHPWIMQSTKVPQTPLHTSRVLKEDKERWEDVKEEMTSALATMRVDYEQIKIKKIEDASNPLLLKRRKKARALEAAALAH
Method description: Determination of MK-2 IC50 (HSP-peptide phosphorylation, anion exchange resin capture assay)
Assay type: biochemical
Study conditions: Table 2, pyrazolylpyrazole MK-2 inhibitors; read-out: MK-2 Avg. IC50
// returns No unless IC50 is strictly below 20 µM, in which case Yes

CCOC(=O)c1[nH]nc2c1CCc1c-2cnn1C No
C=CCSc1n[nH]c2c1-c1nn(CCCN)c(C(=O)O)c1CC2 Yes
C=CCSc1n[nH]c2c1-c1nn3c(c1CC2)C(=O)NCCC3 Yes
CNC(=O)c1nn(-c2ccc(S(N)(=O)=O)cc2)c2c1CCc1[nH]ncc1-2 No
NC(=O)c1nn(-c2ccccc2)c2c1CCc1c-2cnn1Cc1ccccc1 No

Input: Dear colleague, could you confirm whether IC50 of NC(=O)c1[nH]nc2c1CCc1c-2cnn1CCO falls below 20 µM? Thanks.
Output: No

Input: Dear colleague, could you confirm whether IC50 of CCOCn1ncc2c1CCc1c-2n[nH]c1C(N)=O falls below 20 µM? Thanks.
Output: No

Input: Dear colleague, could you confirm whether IC50 of CONC(=O)c1[nH]nc2c1CCc1[nH]ncc1-2 falls below 20 µM? Thanks.
Output: No

Input: Dear colleague, could you confirm whether IC50 of NC(=O)c1[nH]nc2c1CCc1c-2cnn1-c1ccccc1 falls below 20 µM? Thanks.
Output: No

Input: Dear colleague, could you confirm whether IC50 of O=C(O)c1c2c(nn1CCO)-c1cn[nH]c1CC2 falls below 20 µM? Thanks.
Output: No

----------
System under test: MAPKAPK2 (MK-2) (Homo sapiens)
Method description: Determination of MK-2 IC50 (HSP-peptide phosphorylation, anion exchange resin capture assay)
Assay type: biochemical
Study conditions: Table 4, pyrimidylpyrazole MK-2 inhibitors; read-out: MK-2 Avg. IC50
Listing of entries alongside the reported pIC50.
Give only the number. pIC50 is defined as minus log10 of concentration in molar units.

Reference set, count: 4
NCCCn1nc2c(c1C(=O)O)CCc1cnc(-c3cnc4ccccc4c3)nc1-2 7.12
NCCCn1nc2c(c1C(=O)O)CCc1cnc(-c3ccc4c(c3)OCO4)nc1-2 6.53
O=C(O)c1c2c(nn1CCCNC(c1ccccc1)(c1ccccc1)c1ccccc1)-c1nc(-c3cnc4ccccc4c3)ncc1CC2 5.67
NCCCn1nc2c(c1C(=O)O)CCc1cnc(-c3ccccc3)nc1-2 6.39

Now for another entry.
Input: Given O=C1NCCCn2nc3c(c21)CCc1cnc(-c2cccnc2)nc1-3 , state its recorded pIC50.
Output: 5.80

----------
System under test: MK-3 (Homo sapiens)
Sequence (Q16644 whole entry, species assumed): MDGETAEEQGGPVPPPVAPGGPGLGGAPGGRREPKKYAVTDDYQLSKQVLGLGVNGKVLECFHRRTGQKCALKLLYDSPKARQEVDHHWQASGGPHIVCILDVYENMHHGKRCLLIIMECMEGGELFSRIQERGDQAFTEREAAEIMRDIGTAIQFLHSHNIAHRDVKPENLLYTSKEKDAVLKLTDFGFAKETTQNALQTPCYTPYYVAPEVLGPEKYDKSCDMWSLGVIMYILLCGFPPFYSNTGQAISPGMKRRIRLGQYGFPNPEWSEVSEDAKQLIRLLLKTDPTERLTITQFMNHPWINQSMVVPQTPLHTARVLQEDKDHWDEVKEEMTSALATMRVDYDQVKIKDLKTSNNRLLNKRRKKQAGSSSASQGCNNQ
Method description: MK-3 inhibition IC50 (similar method to MK-2, with appropriate modifications)
Type: biochemical
Study conditions: Table 1, phenoxypyrazole MK-2 inhibitors; read-out: MK-3 Avg. IC50
Measured attribute: IC50

Reference set, count: 6
Compound	Recorded result
NCCCn1nc2c(c1C(=O)O)CCc1cc(O)c(-c3ccc(Cl)cc3)cc1-2	109 µM
C=CCC1Cc2c(C(N)=O)n[nH]c2-c2ccc(O)cc21 (stereo not shown)	> 200 µM
CCOC(=O)c1c2c(nn1C)-c1ccc(O)cc1CC2	> 200 µM
O=C1NCCn2nc3c(c21)CCc1cc(O)c(-c2cccc([N+](=O)[O-])c2)cc1-3	> 200 µM
N#Cc1cccc(-c2cc3c(cc2O)CCc2c-3nn(CCCN)c2C(=O)O)c1	168 µM
CCOC(=O)c1nn(-c2ccccc2)c2c1CCc1cc(OC)c(OC)cc1-2	> 200 µM

Input: Given COC(=O)c1[nH]nc2c1CCc1cc(O)ccc1-2 , state its recorded IC50.
Output: > 200 µM

Input: Given COc1ccc2c(c1)CCc1c-2n[nH]c1C(=O)NN , state its recorded IC50.
Output: > 200 µM

Input: Given NCCCn1nc2c(c1C(=O)O)CCc1cc(O)c(-c3ccncc3)cc1-2 , state its recorded IC50.
Output: > 200 µM

Input: Given CCOC(=O)c1[nH]nc2c1CCc1cc(OC)c(OC)cc1-2 , state its recorded IC50.
Output: > 200 µM

Input: Given C=CCn1nc2c(c1C(=O)O)CCc1cc(O)ccc1-2 , state its recorded IC50.
Output: > 200 µM

Input: Given Cn1nc(C(N)=O)c2c1-c1ccc(O)cc1CC2 , state its recorded IC50.
Output: > 200 µM

Input: Given O=C(O)c1[nH]nc2c1CCc1cc(O)ccc1-2 , state its recorded IC50.
Output: > 200 µM

Input: Given NC(=O)c1[nH]nc2c1CCc1c-2ccc(O)c1Br , state its recorded IC50.
Output: > 200 µM
